Sourced from the supplement of paper PMC7156485

Listing of entries alongside the reported H1.0 immunofluorescence intensity.
system: TDF; assay: H1.0 immunofluorescence intensity relative to DMSO (% of DMSO); higher = stronger H1.0 induction, active = 120 or more; conditions: concentration: 10 µM; 24 h;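 note: TDF is a line of transformed human dermal fibroblasts of mesenchymal origin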
I'd appreciate a reply containing only the number, no unit.

stdin: Form entry - test system: TDF; read-out: H1.0 immunofluorescence intensity; molecule: C=C1NC(=O)C2=C(CCSC2)N1;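 note: TDF is a line of transformed human dermal fibroblasts of mesenchymal origin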
stdout: 95.5

stdin: Form entry - test system: TDF; read-out: H1.0 immunofluorescence intensity; molecule: Cc1coc2c1C(=O)C(=O)c1c-2ccc2c1CCCC2(C)C;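 note: TDF is a line of transformed human dermal fibroblasts of mesenchymal origin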
stdout: 113

stdin: Form entry - test system: TDF; read-out: H1.0 immunofluorescence intensity; molecule: CCCCCC(O)C=CC=CC=CC(O)CC=CCCCC(=O)O [8(S),15(S)-DIHETE all trans];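 note: TDF is a line of transformed human dermal fibroblasts of mesenchymal origin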
stdout: 92.4

stdin: Form entry - test system: TDF; read-out: H1.0 immunofluorescence intensity; molecule: O=C(Nc1cccc(C(F)(F)F)c1)Nc1cc(S(=O)(=O)NC2CC2)ccc1-c1ccsc1;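 note: TDF is a line of transformed human dermal fibroblasts of mesenchymal origin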
stdout: 94.6

stdin: Form entry - test system: TDF; read-out: H1.0 immunofluorescence intensity; molecule: Cc1ccc(S(=O)(=O)N2c3ccccc3Oc3ccccc32)cc1 [10-[(4-methylphenyl)sulfonyl]-10H-phenoxazine];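 note: TDF is a line of transformed human dermal fibroblasts of mesenchymal origin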
stdout: 161

stdin: Form entry - test system: TDF; read-out: H1.0 immunofluorescence intensity; molecule: O=c1cc(-c2ccc(O)cc2)oc2c(C3OC(CO)C(O)C(O)C3O)c(O)cc(O)c12 (stereo not drawn);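 note: TDF is a line of transformed human dermal fibroblasts of mesenchymal origin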
stdout: 99.5

stdin: Form entry - test system: TDF; read-out: H1.0 immunofluorescence intensity; molecule: C=C(c1ccc(C(=O)O)cc1)c1cc2c(cc1C)C(C)(C)CCC2(C)C;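 note: TDF is a line of transformed human dermal fibroblasts of mesenchymal origin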
stdout: 84

stdin: Form entry - test system: TDF; read-out: H1.0 immunofluorescence intensity; molecule: CCCCCC(O)C=CC1C(O)CC2CC(=CCCCC(=O)O)CC21 (stereo not drawn);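 note: TDF is a line of transformed human dermal fibroblasts of mesenchymal origin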
stdout: 94.8
